Each record here notes measured Peak serum levels in rats.
- Procedure Summary: peak serum levels in rats
- Type: in vivo
- Test Settings: rat, 25 mg/kg S.C.
Counter-ions that a name gives are not always drawn.

# count of solved cases: 3
{"columns": ["Compound", "Peak serum levels in rats"],
 "data": [
  ["COCC1OC(OC2OCC3OC4(OCC(O)(C(C)OC)C5OCOC54)OC3C2OC)C(OC)C(O)C1OC1OC(C)C(OC)C(OC2CC3(C)OC4(CC(O)C(OC5CC(OC6CC(C)(NO)C(OC)C(C)O6)C(OC(=O)c6c(C)c(Cl)c(O)c(Cl)c6OC)C(C)O5)C(C)O4)OC3C(C)O2)C1O (stereo not shown) [Hydroxylaminoeverninomicin D N-methylglucamine salt]", "30 to 40 µg/mL"],
  ["COCC1OC(OC2OCC3OC4(OCC(O)(C(C)OC)C5OCOC54)OC3C2OC)C(OC)C(O)C1OC1OC(C)C(OC)C(OC2CC3(C)OC4(CC(O)C(OC5CC(OC6CC(C)([N+](=O)[O-])C(OC)C(C)O6)C(OC(=O)c6c(C)c(Cl)c(O)c(Cl)c6OC)C(C)O5)C(C)O4)OC3C(C)O2)C1O (stereo not shown) [Everninomicin D, everninomicin D, reference compound]", "10 to 12 µg/mL"],
  ["COCC1OC(OC2OCC3OC4(OCC(O)(C(C)OC)C5OCOC54)OC3C2OC)C(OC)C(O)C1OC1OC(C)C(OC)C(OC2CC3(C)OC4(CC(O)C(OC5CC(OC6CC(C)(N=O)C(OC)C(C)O6)C(OC(=O)c6c(C)c(Cl)c(O)c(Cl)c6OC)C(C)O5)C(C)O4)OC3C(C)O2)C1O (stereo not shown)", "10 to 11 µg/mL"]
]}

// next item, Peak serum levels in rats requested
## Input Given the entry COCC1OC(OC2OCC3OC4(OCC(O)(C(C)OC)C5OCOC54)OC3C2OC)C(OC)C(O)C1OC1OC(C)C(OC)C(OC2CC3(C)OC4(CC(O)C(OC5CC(OC6CC(C)(NO)C(OC)C(C)O6)C(OC(=O)c6c(C)c(Cl)c(O)c(Cl)c6OC)C(C)O5)C(C)O4)OC3C(C)O2)C1O (stereo not shown) [Hydroxylaminoeverninomicin D sodium salt, hydroxylaminoeverninomicin D sodium salt] , report its measured Peak serum levels in rats.
## Output 30 to 40 µg/mL

---

- Procedure Summary: peak serum levels in dogs
- Type: in vivo
- Test Settings: serum, im; dog, 10 mg/kg I.M.
Reported Endpoint: Cmax (ng/mL)
Report the figure in ng/mL without appending any unit label.

## Input Given the entry COCC1OC(OC2OCC3OC4(OCC(O)C5OCOC54)OC3C2OC)C(OC)C(O)C1OC1OC(C)C(OC)C(OC2CC3(C)OC4(CC(O)C(OC5CC(OC6CC(C)(NO)C(OC)C(C)O6)C(OC(=O)c6c(C)c(Cl)c(O)c(Cl)c6OC)C(C)O5)C(C)O4)OC3C(C)O2)C1O (stereo not shown) [Hydroxylaminoeverninomicin C, hydroxylaminoeverninomicin C] , report its measured Cmax.
## Output 15000

The origin of these recorded values is patent US4006225A.
